Molecular target: human osteoblastic (TE85) tyrosinephosphate phosphatase
Details: read-out: TF85 IC50
ASSAY_READOUT: IC50 (µM)

[[record]]
compound = "O=[N+]([O-])c1ccc(SC2CCCCC2)c(C(O)P(=O)(O)O)c1 (stereo not shown)"
recorded_value = 5.8

[[record]]
compound = "O=[N+]([O-])c1ccc(O)c(C(O)P(=O)(O)O)c1 (stereo not shown)"
recorded_value = 30

[[record]]
compound = "CCCCCCSc1ccc([N+](=O)[O-])cc1C(O)P(=O)(O)O (stereo not shown)"
recorded_value = 1

[[record]]
compound = "O=[N+]([O-])c1ccc(Oc2cccnc2)c(C(O)P(=O)(O)O)c1 (stereo not shown)"
recorded_value = 33


* * *

Target: human osteoblastic (TE85) tyrosinephosphate phosphatase
Settings: read-out: TF85 IC50
ASSAY_READOUT: IC50 (µM)

[[record]]
compound = "O=C(c1cc([N+](=O)[O-])ccc1Cl)P(=O)(O)O"
assay_readout = "IC50"
recorded_value = 5

[[record]]
compound = "O=[N+]([O-])c1ccc(Sc2ccccc2)c(C(O)P(=O)(O)O)c1 (stereo not drawn)"
assay_readout = "IC50"
recorded_value = 28

[[record]]
compound = "Cc1cccc(CSc2ccc([N+](=O)[O-])cc2C(O)P(=O)(O)O)c1 (stereo not drawn)"
assay_readout = "IC50"
recorded_value = 4.4

[[record]]
compound = "O=[N+]([O-])c1ccc(Oc2ccccc2)c(C(O)P(=O)(O)O)c1 (stereo not drawn)"
assay_readout = "IC50"
recorded_value = 18

[[record]]
compound = "O=[N+]([O-])c1ccc(Cl)c(C(O)P(=O)(O)O)c1 (stereo not drawn)"
assay_readout = "IC50"
recorded_value = 35

[[record]]
compound = "O=[N+]([O-])c1cc(C(O)P(=O)(O)O)ccc1OCc1ccc(Cl)c(Cl)c1 (stereo not drawn)"
assay_readout = "IC50"
recorded_value = 30

[[record]]
compound = "O=Cc1ccc(OC(=O)c2ccccc2)c([N+](=O)[O-])c1"
assay_readout = "IC50"
recorded_value = 17

[[record]]
compound = "Cc1ccc(C(O)P(=O)(O)O)cc1[N+](=O)[O-] (stereo not drawn)"
assay_readout = "IC50"
recorded_value = 30

[[record]]
compound = "COc1ccccc1Sc1ccc([N+](=O)[O-])cc1C(O)P(=O)(O)O (stereo not drawn)"
assay_readout = "IC50"
recorded_value = 23


* * *

Biological target: CD45 (Homo sapiens)
Sequence (P08575 26-1306): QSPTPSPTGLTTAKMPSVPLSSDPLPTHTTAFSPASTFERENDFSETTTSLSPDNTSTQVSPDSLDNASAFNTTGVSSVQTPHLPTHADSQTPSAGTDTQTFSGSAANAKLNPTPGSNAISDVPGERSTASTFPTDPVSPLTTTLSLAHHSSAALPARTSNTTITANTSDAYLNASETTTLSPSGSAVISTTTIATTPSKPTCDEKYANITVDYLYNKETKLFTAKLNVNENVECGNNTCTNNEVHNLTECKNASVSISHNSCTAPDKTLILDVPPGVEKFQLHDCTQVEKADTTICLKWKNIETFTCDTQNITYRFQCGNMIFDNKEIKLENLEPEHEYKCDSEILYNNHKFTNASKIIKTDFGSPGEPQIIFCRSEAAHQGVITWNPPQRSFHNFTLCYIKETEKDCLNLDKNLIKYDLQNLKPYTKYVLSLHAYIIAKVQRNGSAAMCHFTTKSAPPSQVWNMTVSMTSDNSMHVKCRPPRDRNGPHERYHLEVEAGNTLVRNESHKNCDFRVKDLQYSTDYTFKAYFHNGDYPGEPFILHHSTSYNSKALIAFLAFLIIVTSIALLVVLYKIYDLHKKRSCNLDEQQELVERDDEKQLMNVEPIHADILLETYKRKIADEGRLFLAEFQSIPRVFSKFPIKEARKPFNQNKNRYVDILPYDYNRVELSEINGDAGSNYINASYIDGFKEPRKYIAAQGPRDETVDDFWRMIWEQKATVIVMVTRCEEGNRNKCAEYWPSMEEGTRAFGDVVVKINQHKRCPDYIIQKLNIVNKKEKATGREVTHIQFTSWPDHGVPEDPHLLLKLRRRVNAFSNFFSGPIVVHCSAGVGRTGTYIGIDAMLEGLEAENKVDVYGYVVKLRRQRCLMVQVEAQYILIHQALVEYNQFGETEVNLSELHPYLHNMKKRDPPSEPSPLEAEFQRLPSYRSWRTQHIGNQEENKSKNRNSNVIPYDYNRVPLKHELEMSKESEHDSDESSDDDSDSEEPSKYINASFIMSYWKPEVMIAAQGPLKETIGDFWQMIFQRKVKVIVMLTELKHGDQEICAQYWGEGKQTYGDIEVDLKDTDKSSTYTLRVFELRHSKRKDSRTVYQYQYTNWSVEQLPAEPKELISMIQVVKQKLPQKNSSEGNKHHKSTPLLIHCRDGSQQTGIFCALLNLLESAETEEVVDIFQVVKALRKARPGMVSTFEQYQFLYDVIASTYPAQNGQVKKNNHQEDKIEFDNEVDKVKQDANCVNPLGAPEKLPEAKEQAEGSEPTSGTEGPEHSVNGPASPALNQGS
Assay: biochemical
ASSAY_READOUT: IC50 (µM)

[[record]]
compound = "O=[N+]([O-])c1ccc(SCc2ccccc2)c(C(O)P(=O)(O)O)c1 (centres unmarked)"
assay_readout = "IC50"
value_units = "µM"
recorded_value = 6

[[record]]
compound = "O=[N+]([O-])c1ccc(Oc2ccccc2)c(C(O)P(=O)(O)O)c1 (centres unmarked)"
assay_readout = "IC50"
value_units = "µM"
recorded_value = 14


* * *

Molecular target: CD45 (Homo sapiens)
Conditions: read-out: IC50 (CD45); pH 6
pIC50: −log10 of the molar value.
Below is a list of entries, each paired with its recorded pIC50 value.
ASSAY_READOUT: pIC50

[[record]]
compound = "O=[N+]([O-])c1ccc(SC2CCCCC2)c(C(O)P(=O)(O)O)c1 (stereo not shown)"
recorded_value = 5.92

[[record]]
compound = "O=[N+]([O-])c1cc(C(O)P(=O)(O)O)cs1 (stereo not shown)"
recorded_value = 4.42

[[record]]
compound = "O=[N+]([O-])c1ccc(Sc2ccccn2)c(C(O)P(=O)(O)O)c1 (stereo not shown)"
recorded_value = 6.00

[[record]]
compound = "O=[N+]([O-])c1ccc(Sc2ccc(Cl)cc2)c(C(O)P(=O)(O)O)c1 (stereo not shown)"
recorded_value = 4.55


* * *

Molecular target: human osteoblastic (TE85) tyrosinephosphate phosphatase
Details: read-out: TF85 IC50
ASSAY_READOUT: log10 IC50 (log10 of the value in nM)

[[record]]
compound = "Cc1ccc(CSc2ccc([N+](=O)[O-])cc2C(O)P(=O)(O)O)cc1 (stereo not drawn) [Example 31]"
recorded_value = 2.91

[[record]]
compound = "O=[N+]([O-])c1ccc(SCc2ccccc2)c(C(O)P(=O)(O)O)c1 (stereo not drawn) [Example 28]"
recorded_value = 3.80

[[record]]
compound = "O=[N+]([O-])c1ccc(C(O)P(=O)(O)O)s1 (stereo not drawn) [Example 43]"
recorded_value = 3.00

[[record]]
compound = "Cc1ccccc1CSc1ccc([N+](=O)[O-])cc1C(O)P(=O)(O)O (stereo not drawn) [Example 29]"
recorded_value = 3.97

[[record]]
compound = "CCCCCCCCCCSc1ccc([N+](=O)[O-])cc1C(O)P(=O)(O)O (stereo not drawn) [Example 36]"
recorded_value = 3.00

[[record]]
compound = "O=[N+]([O-])c1ccc(-c2ccccc2)c(C(O)P(=O)(O)O)c1 (stereo not drawn) [Example 59]"
recorded_value = 4.00

[[record]]
compound = "O=[N+]([O-])c1ccc(SCCCc2ccccc2)c(C(O)P(=O)(O)O)c1 (stereo not drawn) [Example 34]"
recorded_value = 2.65

[[record]]
compound = "O=[N+]([O-])c1ccc(Sc2cccc(C(F)(F)F)c2)c(C(O)P(=O)(O)O)c1 (stereo not drawn) [Example 20]"
recorded_value = 3.38

[[record]]
compound = "O=[N+]([O-])c1ccc(Sc2ccccn2)c(C(O)P(=O)(O)O)c1 (stereo not drawn) [Example 22]"
recorded_value = 4.15

